From: ChEMBL document CHEMBL1140970

- Tested on: Helicobacter pylori
- Assay protocol: Antibacterial activity against metronidazole-resistant Helicobacter pylori at 32 ug/disk after 3 to 5 days by filter paper disk diffusion method
- Assay type: functional
- Conditions: read-out: IZ
Here, each record is paired with measured zone of inhibition at 32 µg/disc data.
Property measured: zone of inhibition at 32 µg/disc (mm)

[[record]]
structure = "O=[N+]([O-])c1ccc(-c2nnc(N3CCCCC3)s2)s1"
test_value = 6

[[record]]
structure = "O=[N+]([O-])c1ccc(-c2nnc(N3CCS(=O)(=O)CC3)s2)s1"
test_value = 6

[[record]]
structure = "O=[N+]([O-])c1ccc(-c2nnc(N3CCSCC3)s2)s1"
test_value = 21

[[record]]
structure = "Cn1c([N+](=O)[O-])cnc1-c1nnc(N2CCCCC2)s1"
test_value = 6

[[record]]
structure = "Cn1c([N+](=O)[O-])cnc1-c1nnc(N2CCSCC2)s1"
test_value = 30

[[record]]
structure = "O=[N+]([O-])c1ccc(-c2nnc(N3CCSCC3)s2)o1"
test_value = 42

[[record]]
structure = "O=[N+]([O-])c1ccc(-c2nnc(N3CCCCC3)s2)o1"
test_value = 34

[[record]]
structure = "Cn1c([N+](=O)[O-])cnc1-c1nnc(N2CC[S+]([O-])CC2)s1"
test_value = 21

[[record]]
structure = "Cn1c([N+](=O)[O-])cnc1-c1nnc(N2CCS(=O)(=O)CC2)s1"
test_value = 40

[[record]]
structure = "O=[N+]([O-])c1ccc(-c2nnc(N3CCS(=O)(=O)CC3)s2)o1"
test_value = 46

[[record]]
structure = "O=[N+]([O-])c1ccc(-c2nnc(N3CCOCC3)s2)s1"
test_value = 6

